- method.description: qHTS assay to identify aromatase inhibitors - cell viability counter screen (AID 743084);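 note: cells stimulated with testosterone during compound exposure; % is set by controls: 0 for no effect and ±100 for the full control effect; nearly all actives have a fitted effect of over 55% in size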
- stated.conditions: MCF-7 aro ERE viability, CellTiter-Fluor, 24 h; series mostly up to 70.3 µM
Inconclusive results are not listed. Activity calls are given as the source filed them. Calls come from the whole dose curve; as a rule, active = well fitted cell-killing curve with a large enough effect in the repeat runs; inconclusive = weak or mixed curves, or effect the other way; inactive = no such curve, though single readings can be large or run the other way.
recorded.metric: outcome

CC(C)(C)NC[C@H](O)COc1ccccc1C1CCCC1    inactive
COc1cc2c(cc1OC)[C@@H](c1ccccc1)CN(C)CC2    inactive
O=C(O)c1cc(N=Nc2ccc(O)c(C(=O)O)c2)ccc1O    inactive
CC1(C)S[C@@H]2[C@H](NC(=O)[C@H](N)c3ccccc3)C(=O)N2[C@H]1C(=O)OCOC(=O)[C@@H]1N2C(=O)C[C@H]2S(=O)(=O)C1(C)C    inactive

Consider the record given below.
Would you mind telling me what outcome value was observed for OC[C@H]1O[C@@H](O[C@H]2[C@H](O)[C@@H](O)[C@H](O)O[C@@H]2CO)[C@H](O)[C@@H](O)[C@@H]1O ?
inactive

###

- Test system: thyroid hormone receptor (rat, GH3 cells)
- method.description: qHTS assay to identify small molecule agonists of the thyroid receptor (TR) signaling pathway (AID 743066); note: % is set by controls: 0 for no effect and ±100 for the full control effect
- stated.conditions: GH3.TRE-Luc cells, TR agonist luciferase, 24 h; series mostly up to 83.9 µM
Inconclusive results are not listed. The source made the active and inactive calls. Calls follow the shape of the full dose curve.
recorded.metric: outcome

Sample answers from the record:
O=c1[nH]cnc2[nH]cc(CN3CCCCC3)c12    inactive
COc1ccc(-c2noc(CC(=O)O)c2-c2ccc(OC)cc2)cc1    inactive
CC#CCC(C)[C@H](O)/C=C/[C@@H]1[C@H]2C/C(=C/CCCC(=O)O)C[C@H]2C[C@H]1O (some centres undefined)    inactive
CCOC(=O)Nc1ccc2c(c1)N(C(=O)CN(C)C)c1ccccc1CC2    inactive
COc1ccc(CCNCC(O)COc2cccc(C)c2)cc1OC (centres undefined)    inactive
O=C1NC(=O)[C@H]2[C@@H]1[C@@H]1C=C[C@H]2C1    inactive
CC(C)(C)c1ccc(CN2CCN(C(c3ccccc3)c3ccc(Cl)cc3)CC2)cc1 (centres undefined)    inactive
CC(C)CN(C[C@@H](OP(=O)(O)O)[C@H](Cc1ccccc1)NC(=O)O[C@H]1CCOC1)S(=O)(=O)c1ccc(N)cc1    inactive
O=C(O)CCC/C=C\C[C@@H]1[C@@H](/C=C/[C@@H](O)COc2cccc(C(F)(F)F)c2)[C@H](O)C[C@@H]1O    inactive
CCN(CC)c1ccc(N=Nc2ccc(S(=O)(=O)N(C)C)cc2)c(S(=O)(=O)NCC[n+]2ccccc2)c1    inactive

Would you mind telling me what outcome value was observed for CC[C@@]1(O)C(=O)OCc2c1cc1n(c2=O)Cc2cc3c([N+](=O)[O-])cccc3nc2-1 ?
inactive

###

- target.desc: Nuclear receptor subfamily 1 group I member 2 (Rattus norvegicus) (UniProt Q9R1A7)
- Sequence (Q9R1A7 whole entry, looked up): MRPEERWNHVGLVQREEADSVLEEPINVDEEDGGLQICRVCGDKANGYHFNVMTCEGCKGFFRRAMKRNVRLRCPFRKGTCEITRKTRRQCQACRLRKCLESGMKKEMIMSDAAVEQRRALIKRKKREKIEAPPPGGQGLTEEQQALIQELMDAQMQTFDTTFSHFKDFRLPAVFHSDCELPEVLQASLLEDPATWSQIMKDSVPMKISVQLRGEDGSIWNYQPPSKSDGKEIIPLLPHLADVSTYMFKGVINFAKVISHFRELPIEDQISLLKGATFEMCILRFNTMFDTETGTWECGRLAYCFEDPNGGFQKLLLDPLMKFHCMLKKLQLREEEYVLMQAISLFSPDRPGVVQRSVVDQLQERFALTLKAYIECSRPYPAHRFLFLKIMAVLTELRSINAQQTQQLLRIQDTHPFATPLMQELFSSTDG
- method.description: Rat pregnane X receptor (rPXR) activation by small molecules, qHTS assay (AID 1346983); note: % is set by controls: 0 for no effect and ±100 for the full control effect; nearly all actives have a fitted effect of over 20% in size
- stated.conditions: rPXR luciferase reporter cells, One-Glo luminescence, 24 h; stronger effect = higher value
Inconclusive results are not listed.
recorded.metric: max activation (%)
Write it as a number; the unit % goes unstated.

COc1ccc(C(=O)CCC(=O)O)c2ccccc12    -4.04
O=C1CSC2(CCN(CCCN3c4ccccc4Sc4ccc(Cl)cc43)CC2)N1    2.22
CN[C@@H]1[C@@H](O)[C@@H](O[C@@H]2[C@@H](O)[C@H](O[C@H]3O[C@H](CN)[C@@H](O)[C@H](O)[C@H]3O)[C@@H](N)C[C@H]2NC(=O)C(O)CN)OC[C@]1(C)O (some centres undefined)    -5.41
COC(=O)[C@H]1[C@H]2C[C@@H]3c4[nH]c5ccccc5c4CCN3C[C@H]2C[C@@H](OC(=O)c2cc(OC)c(OC)c(OC)c2)[C@@H]1OC    -18.7
c1ccc2cc(C3=NCCN3)ccc2c1    -0.34

Would you mind telling me what max activation value was observed for CCCCCCCCCCCCCCCC(=O)OCC(COC(=O)CCCCCCCCCCCCCCC)OC(=O)CCCCCCCCCCCCCCC ?
-0.974

How about CC1=C(/C=C/C(C)=C/C=C/C(C)=C/C(=O)Oc2c(C)c(C)c3c(c2C)CC[C@@](C)(CCC[C@H](C)CCC[C@H](C)CCCC(C)C)O3)C(C)(C)CCC1 ?
-1.27

How about C=CCN1CCCC1CNC(=O)c1cc(S(N)(=O)=O)cc(OC)c1OC (centres undefined) ?
-5.9

How about C=CC[C@@H]1/C=C(\C)C[C@H](C)C[C@H](OC)[C@H]2O[C@@](O)(C(=O)C(=O)N3CCCC[C@H]3C(=O)O[C@H](/C(C)=C/[C@@H]3CC[C@@H](O)[C@H](OC)C3)[C@H](C)[C@@H](O)CC1=O)[C@H](C)C[C@@H]2OC ?
-13.2

How about CC[C@@H](C(=O)[C@@H](C)[C@@H](O)[C@H](C)[C@@H]1O[C@@H]([C@@H](CC)C(=O)O)CC[C@@H]1C)[C@H]1O[C@]2(C=C[C@@H](O)[C@]3(CC[C@@](C)([C@H]4CC[C@](O)(CC)[C@H](C)O4)O3)O2)[C@H](C)C[C@@H]1C ?
-12.1

How about C[C@]12CCC(=O)C[C@@H]1CC[C@@H]1[C@@H]2CC[C@]2(C)C=CC[C@@H]12 ?
-0.035
